In this section, each of the compounds is paired with its reported IC50.
# measured_on: Human recombinant MMP-9 (Homo sapiens)
# Construct: made in house; host or cells: MMP-9-transfected HT1080 cells (spent media)
# experimental_details: In vitro MMP inhibition, IC50 determination (fluorogenic substrate I)
# Assay type: biochemical
# condition_notes: value outside parentheses (Ki in parenthesis)
Kindly provide the numeric value in nM only, without the unit symbol.

Cc1ccc2c(c1)CCCN2CCCCCOc1ccc(S(=O)(=O)C2(C(=O)NO)CCOCC2)cc1: 1780

# IC50 of C[C@@H]1[C@H](c2ccccc2)OC(=O)N1CCCOc1ccc(S(=O)(=O)C2(C(=O)NO)CCOCC2)cc1 = 1600

// IC50 lookup, compound = O=C(NO)C1(S(=O)(=O)c2ccc(OCCCCN3CCc4ccccc4C3)cc2)CCOCC1 , result: 866

----------
IC50 listing for selected compounds.
# measured_on: Human recombinant MMP-9 (Homo sapiens, UniProt P14780)
# Construct: made in house; host or cells: MMP-9-transfected HT1080 cells (spent media)
# Sequence (P14780 107-707 limits assumed): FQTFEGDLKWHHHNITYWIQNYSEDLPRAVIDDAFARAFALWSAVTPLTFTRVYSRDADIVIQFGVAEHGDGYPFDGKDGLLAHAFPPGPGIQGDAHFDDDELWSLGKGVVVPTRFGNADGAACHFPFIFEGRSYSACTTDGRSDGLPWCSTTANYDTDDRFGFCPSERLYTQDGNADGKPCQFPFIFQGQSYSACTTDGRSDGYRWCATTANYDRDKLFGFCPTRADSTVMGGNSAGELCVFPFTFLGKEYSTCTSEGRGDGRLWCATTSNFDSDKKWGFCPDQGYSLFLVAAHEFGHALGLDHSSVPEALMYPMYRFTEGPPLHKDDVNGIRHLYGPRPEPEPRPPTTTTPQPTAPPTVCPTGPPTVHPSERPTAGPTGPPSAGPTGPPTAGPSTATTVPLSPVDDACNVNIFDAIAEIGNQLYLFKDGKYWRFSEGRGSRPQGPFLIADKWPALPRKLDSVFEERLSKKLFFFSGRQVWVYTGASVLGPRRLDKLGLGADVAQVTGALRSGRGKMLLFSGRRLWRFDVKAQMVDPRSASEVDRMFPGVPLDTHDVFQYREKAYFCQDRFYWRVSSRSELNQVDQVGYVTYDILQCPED
# experimental_details: In vitro MMP inhibition, IC50 determination (fluorogenic substrate I)
# Type: biochemical
# condition_notes: value outside parentheses (Ki in parenthesis)
API: value field is a number in µM; no unit string.

O=C(NO)C1(S(=O)(=O)c2ccc(OCCCOc3cccc(C(F)(F)F)c3)cc2)CCN(C2CC2)CC1: 0.375
CCOc1ccc2nc(SCCOc3ccc(S(=O)(=O)C4(C(=O)NO)CCOCC4)cc3)sc2c1: 0.216
O=C(CCCOc1ccc(S(=O)(=O)C2(C(=O)NO)CCOCC2)cc1)c1cccc2ccccc12: 3.6

GET /value?item= O=C(NO)C1(S(=O)(=O)c2ccc(OCCCCCn3cnc4ccccc43)cc2)CCOCC1 &field=IC50 returns 1.18

Notebook: O=C(NO)C1(S(=O)(=O)c2ccc(OCCCNc3nc4ccccc4o3)cc2)CCOCC1 , IC50 read as 0.626

The reported value for COc1cc(COCCCOc2ccc(S(=O)(=O)C3(C(=O)NO)CCOCC3)cc2)cc(OC)c1 in terms of IC50 is 0.8

get_value(item= C/C(=C\c1ccccc1)COc1ccc(S(=O)(=O)C2(C(=O)NO)CCOCC2)cc1 , readout=IC50) returns 0.014

Measured IC50, O=C(NO)C1(S(=O)(=O)c2ccc(OCCCSCc3ccccc3)cc2)CCOCC1 : 6

Consider O=C(CCCCOc1ccc(S(=O)(=O)C2(C(=O)NO)CCOCC2)cc1)c1ccccc1 . Its measured IC50 is 0.263

Record COc1ccc(OCCCCOc2ccc(S(=O)(=O)C3(C(=O)NO)CCOCC3)cc2)cc1 . Reported IC50: 0.044

The compound COc1ccc(CC(=O)CCCOc2ccc(S(=O)(=O)C3(C(=O)NO)CCOCC3)cc2)cc1 showed IC50 equal to 0.0091

----------
IC50 overview
# measured_on: Human recombinant MMP-13 (Homo sapiens)
# Construct: made in house; host or cells: baculovirus / insect cells
# experimental_details: In vitro MMP inhibition, IC50 determination (fluorogenic substrate I)
# Type: biochemical
# condition_notes: value outside parentheses (Ki in parenthesis)

# annotated cases, reported IC50 shown
O=C(NCCCOc1ccc(S(=O)(=O)C2(C(=O)NO)CCOCC2)cc1)c1cc2ccccc2cc1O: 0.8 nM
O=C(NCCCOc1ccc(S(=O)(=O)C2(C(=O)NO)CCOCC2)cc1)c1ccc2ccccc2c1: 0.3 nM
C[C@H]1[C@@H](c2ccccc2)OC(=O)N1CCCOc1ccc(S(=O)(=O)C2(C(=O)NO)CCOCC2)cc1: 1.8 nM

Turning now to a further record.
For this molecule ( O=C(NO)C1(S(=O)(=O)c2ccc(OCCCCCO)cc2)CCOCC1 ), measured IC50 is 14.8 nM
